- Tested on: 596521-263-R-J1-PDC complex spheroids, viability % of control;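 further: spheroids exposed to drugs for 7 days before viability reading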
- experiment_description: Anticancer human tumor 596521-263-R-J1-PDC patient-derived soft tissue sarcoma cell line growth inhibition [GQUAD]
- protocol_conditions: second compound 0.1 µM; first compound 1 µM; hits give low values
- Excerpt: DNA G-quadruplex Stabilizer Agents in Combinations in Complex Spheroids A high-throughput screen of multi-cell type tumor spheroids was designed to identify active combinations of DNA G-quadruplex stabilizer agents and targeted small molecules. […] Compounds. […] If the clinical Cmax for an agent had not been determined, the highest concentration tested was 10 microM. […]
Rule: measured viability, T/C below 50% gets Satisfied; anything equal to or greater than 50% gets Not satisfied.

In: Strictly below 50% in viability, T/C? C=CCn1c(=O)c2cnc(Nc3ccc(N4CCN(C)CC4)cc3)nc2n1-c1cccc(C(C)(C)O)n1 + Cc1cnc(CNC(=O)c2c(=O)c3ccc(N4CCCN(C)CC4)nc3n3c2sc2ccccc23)cn1
Out: Satisfied

In: Strictly below 50% in viability, T/C? O=c1[nH]cc(F)c(=O)[nH]1 + Cc1[nH]c2ccc(F)cc2c1-c1nc2c3cccnc3c3ncccc3c2[nH]1
Out: Not satisfied

In: Strictly below 50% in viability, T/C? COc1cc(C2c3cc4c(cc3C(OC3OC5COC(C)OC5C(O)C3O)C3COC(=O)C23)OCO4)cc(OC)c1O (configuration not stated) + Cc1[nH]c2ccc(F)cc2c1-c1nc2c3cccnc3c3ncccc3c2[nH]1
Out: Not satisfied

In: Strictly below 50% in viability, T/C? O=C(c1cc(Cc2n[nH]c(=O)c3ccccc23)ccc1F)N1CCN(C(=O)C2CC2)CC1 + Cc1[nH]c2ccc(F)cc2c1-c1nc2c3cccnc3c3ncccc3c2[nH]1
Out: Not satisfied

In: Strictly below 50% in viability, T/C? CCCS(=O)(=O)Nc1ccc(F)c(C(=O)c2c[nH]c3ncc(-c4ccc(Cl)cc4)cc23)c1F + Cc1[nH]c2ccc(F)cc2c1-c1nc2c3cccnc3c3ncccc3c2[nH]1
Out: Satisfied

In: Strictly below 50% in viability, T/C? CC(C)(O)C1CCC(Nc2ccc3ncc(-c4cccc(C(F)(F)F)c4)n3n2)CC1 (configuration not stated) + Cc1[nH]c2ccc(F)cc2c1-c1nc2c3cccnc3c3ncccc3c2[nH]1
Out: Not satisfied

In: Strictly below 50% in viability, T/C? O=c1[nH]cc(F)c(=O)[nH]1 + Cc1cnc(CNC(=O)c2c(=O)c3ccc(N4CCCN(C)CC4)nc3n3c2sc2ccccc23)cn1
Out: Not satisfied

In: Strictly below 50% in viability, T/C? CC1COCCN1c1cc(C2(O)CC3CCC(C2)O3)c2cnn(-c3ccn[nH]3)c2n1 (configuration not stated) + Cc1cnc(CNC(=O)c2c(=O)c3ccc(N4CCCN(C)CC4)nc3n3c2sc2ccccc23)cn1
Out: Satisfied

In: Strictly below 50% in viability, T/C? CC1COCCN1c1cc(-c2ccnn2C)c2ccnc(-c3ccn[nH]3)c2n1 (configuration not stated) + Cc1cnc(CNC(=O)c2c(=O)c3ccc(N4CCCN(C)CC4)nc3n3c2sc2ccccc23)cn1
Out: Satisfied

In: Strictly below 50% in viability, T/C? CC1COCCN1c1cc(C2(O)CC3CCC(C2)O3)c2cnn(-c3ccn[nH]3)c2n1 (configuration not stated) + CN(C)c1ccc(Nc2c3ccc(NC(=O)CCN4CCCC4)cc3nc3cc(NC(=O)CCN4CCCC4)ccc23)cc1
Out: Satisfied

In: Strictly below 50% in viability, T/C? COc1cc(C2c3cc4c(cc3C(OC3OC5COC(C)OC5C(O)C3O)C3COC(=O)C23)OCO4)cc(OC)c1O (configuration not stated) + CN(C)c1ccc(Nc2c3ccc(NC(=O)CCN4CCCC4)cc3nc3cc(NC(=O)CCN4CCCC4)ccc23)cc1
Out: Not satisfied

In: Strictly below 50% in viability, T/C? COc1cccc2c1C(=O)c1c(O)c3c(c(O)c1C2=O)CC(O)(C(=O)CO)CC3OC1CC(N)C(O)C(C)O1 (configuration not stated) + CN(C)c1ccc(Nc2c3ccc(NC(=O)CCN4CCCC4)cc3nc3cc(NC(=O)CCN4CCCC4)ccc23)cc1
Out: Satisfied

In: Strictly below 50% in viability, T/C? C=CCn1c(=O)c2cnc(Nc3ccc(N4CCN(C)CC4)cc3)nc2n1-c1cccc(C(C)(C)O)n1 + CN(C)c1ccc(Nc2c3ccc(NC(=O)CCN4CCCC4)cc3nc3cc(NC(=O)CCN4CCCC4)ccc23)cc1
Out: Satisfied

In: Strictly below 50% in viability, T/C? CC1COCCN1c1cc(-c2ccnn2C)c2ccnc(-c3ccn[nH]3)c2n1 (configuration not stated) + CN(C)c1ccc(Nc2c3ccc(NC(=O)CCN4CCCC4)cc3nc3cc(NC(=O)CCN4CCCC4)ccc23)cc1
Out: Satisfied

In: Strictly below 50% in viability, T/C? CC(C)n1c(=O)n(C)c2cnc3cc(F)c(-c4ccc(OCCCN5CCCCC5)nc4)cc3c21 + CN(C)c1ccc(Nc2c3ccc(NC(=O)CCN4CCCC4)cc3nc3cc(NC(=O)CCN4CCCC4)ccc23)cc1
Out: Not satisfied

In: Strictly below 50% in viability, T/C? O=C(NO)c1cnc(N2CCN(S(=O)(=O)c3ccc4ccccc4c3)CC2)nc1 + CN(C)c1ccc(Nc2c3ccc(NC(=O)CCN4CCCC4)cc3nc3cc(NC(=O)CCN4CCCC4)ccc23)cc1
Out: Satisfied
